- SYSTEM UNDER TEST: Histamine H3 receptor (Cavia porcellus, UniProt Q9JI35)
- Sequence (Q9JI35 whole entry): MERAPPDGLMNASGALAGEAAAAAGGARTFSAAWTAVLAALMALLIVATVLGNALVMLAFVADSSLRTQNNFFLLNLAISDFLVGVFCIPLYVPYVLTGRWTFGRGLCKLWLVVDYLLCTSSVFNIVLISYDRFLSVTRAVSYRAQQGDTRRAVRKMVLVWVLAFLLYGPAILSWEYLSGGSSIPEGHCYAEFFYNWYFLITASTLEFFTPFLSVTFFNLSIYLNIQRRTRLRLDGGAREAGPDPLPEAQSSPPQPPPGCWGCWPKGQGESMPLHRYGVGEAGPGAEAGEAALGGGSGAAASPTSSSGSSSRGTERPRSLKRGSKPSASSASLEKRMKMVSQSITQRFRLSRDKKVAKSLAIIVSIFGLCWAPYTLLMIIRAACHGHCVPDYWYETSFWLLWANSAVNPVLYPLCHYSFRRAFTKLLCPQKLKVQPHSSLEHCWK
- MEASUREMENT PROTOCOL: Histamine H3-antagonist potency on electrically stimulated guinea pig ileum
- Type: functional, tissue-based
- SETUP CONDITIONS: read-out: pA2 (converted)
Field: Kb. Provide a value for each of the compounds that follow.
One number for each entry, in nM.

Known results for compounds:
{"STRUCTURE STRING": "CCCCOc1ccc(-c2cnc(SCCc3c[nH]cn3)[nH]2)cc1", "Kb [nM]": 148}
{"STRUCTURE STRING": "NC(=O)c1cccc(-c2cnc(SCCc3c[nH]cn3)[nH]2)c1", "Kb [nM]": 145}
{"STRUCTURE STRING": "O=[N+]([O-])c1ccc(-c2cnc(SCCc3c[nH]cn3)[nH]2)cc1", "Kb [nM]": 16.2}
{"STRUCTURE STRING": "O=S(=O)(Oc1ccc(-c2cnc(SCCc3c[nH]cn3)[nH]2)cc1)c1ccccc1", "Kb [nM]": 50.1}
{"STRUCTURE STRING": "Clc1ccc(-c2c[nH]c(SCCc3c[nH]cn3)n2)cc1", "Kb [nM]": 1.35}

Dear colleague, could you send me Kb for each of the items below? Thanks.
1. NC(=O)c1ccc(-c2c[nH]c(SCCc3c[nH]cn3)n2)cc1
2. Brc1cccc(-c2cnc(SCCc3c[nH]cn3)[nH]2)c1
3. CN(C)c1ccc(-c2c[nH]c(SCCc3c[nH]cn3)n2)cc1
4. c1ccc(-c2cnc(SCCc3c[nH]cn3)[nH]2)cc1
5. O=[N+]([O-])c1cccc(-c2c[nH]c(SCCc3c[nH]cn3)n2)c1

Data returned:
1. 117
2. 7.76
3. 52.5
4. 6.46
5. 3.47

----------
- MEASUREMENT PROTOCOL: LogP of the free base (neutral species).
- Format: physicochemical
- SETUP CONDITIONS: octanol/water
Field: logP. Provide a value for each of the compounds that follow.
Answers are plain numbers.

{"STRUCTURE STRING": "NC(=O)c1ccc(-c2c[nH]c(SCCc3c[nH]cn3)n2)cc1", "logP": 1.4}

Dear colleague, could you send me logP for each of the items below? Thanks.
1. c1ccc(-c2cnc(SCCc3c[nH]cn3)[nH]2)cc1
2. Clc1ccc(-c2c[nH]c(SCCc3c[nH]cn3)n2)cc1
3. NC(=O)c1cccc(-c2cnc(SCCc3c[nH]cn3)[nH]2)c1
4. O=S(=O)(Oc1ccc(-c2cnc(SCCc3c[nH]cn3)[nH]2)cc1)c1ccccc1
5. CCCCOc1ccc(-c2cnc(SCCc3c[nH]cn3)[nH]2)cc1
6. Brc1cccc(-c2cnc(SCCc3c[nH]cn3)[nH]2)c1

Data returned:
1: 2.62; 2: 3.66; 3: 1.61; 4: 3.72; 5: 4.11; 6: 3.76

Dear colleague, could you send me logP for each of the items below? Thanks.
1. O=[N+]([O-])c1ccc(-c2cnc(SCCc3c[nH]cn3)[nH]2)cc1
2. CCCc1ccc(-c2c[nH]c(SCCc3c[nH]cn3)n2)cc1
3. O=[N+]([O-])c1cccc(-c2c[nH]c(SCCc3c[nH]cn3)n2)c1
4. CCCOc1cccc(-c2c[nH]c(SCCc3c[nH]cn3)n2)c1

Data returned:
[2.75, 4.09, 2.43, 3.7]

Origin of the recorded values: ChEMBL document CHEMBL1130112
